The values you see were collected from patent US4281121A.

Test system: Fusarium avenaceum
assay.remarks: Threshold concentration test in case of Fusarium avenaceum (infested soil, garden peas)
Format: in vivo
recorded.conditions: 100 mg/l soil; 20 grains per dish; 18 days at 20-24° C.
Below: a set of entries, each annotated with reported number of sound peas.

compound: CC[S+]([O-])c1nnc(C#N)s1 (stereo not shown)
number of sound peas: 20
--
compound: CCCCCCS(=O)(=O)c1nnc(C(N)=O)s1
number of sound peas: 15
--
compound: C[S+]([O-])c1nnc(C#N)s1 (stereo not shown)
number of sound peas: 19
--
compound: CCCS(=O)(=O)c1nnc(C(=O)NC(C)C)s1
number of sound peas: 17
--
compound: CC(C)S(=O)(=O)c1nnc(C#N)s1
number of sound peas: 19
--
compound: CS(=O)(=O)c1nnc(C#N)s1
number of sound peas: 19
--
compound: C[S+]([O-])c1nnc(C(=O)NCc2ccccc2Cl)s1 (stereo not shown)
number of sound peas: 18
--
compound: CC(C)CS(=O)(=O)c1nnc(C#N)s1
number of sound peas: 19
--
compound: CCCCS(=O)(=O)c1nnc(C(N)=O)s1
number of sound peas: 16
--
compound: CCCS(=O)(=O)c1nnc(C(=O)N2CCC2)s1
number of sound peas: 17
--
compound: CCCCS(=O)(=O)c1nnc(C#N)s1
number of sound peas: 20
--
compound: CCCCCS(=O)(=O)c1nnc(C(N)=O)s1
number of sound peas: 18
--
compound: CC(C)[S+]([O-])c1nnc(C#N)s1 (stereo not shown)
number of sound peas: 18
--
compound: CCS(=O)(=O)c1nnc(C#N)s1
number of sound peas: 20
--
compound: CCCS(=O)(=O)c1nnc(C#N)s1
number of sound peas: 20
--
compound: CCC[S+]([O-])c1nnc(C#N)s1 (stereo not shown)
number of sound peas: 19
--
compound: CCC[S+]([O-])c1nnc(C(=O)NC(C)CC)s1 (stereo not shown)
number of sound peas: 17
--
compound: CCC(C)S(=O)(=O)c1nnc(C#N)s1 (stereo not shown)
number of sound peas: 20
--
compound: CCCCS(=O)(=O)c1nnc(C(=O)N2CCC2)s1
number of sound peas: 18
--
compound: CCCC[S+]([O-])c1nnc(C#N)s1 (stereo not shown)
number of sound peas: 19
--
compound: S=C([S-])NCCNC(=S)[S-].[Mn+2] [reference compound]
number of sound peas: 12
--
compound: CCCCCCS(=O)(=O)c1nnc(C#N)s1
number of sound peas: 19
--
compound: CCC[S+]([O-])c1nnc(C(=O)NC(C)C)s1 (stereo not shown)
number of sound peas: 16
--
compound: CCCCNC(=O)c1nnc(S(=O)(=O)CCC)s1
number of sound peas: 17
--
compound: CCCCCS(=O)(=O)c1nnc(C#N)s1
number of sound peas: 19
